- Test system: Trypanosoma brucei
- EXPERIMENT: Antimicrobial activity against Trypanosoma brucei
- Assay type: functional, organism-based
READOUT: log10(EC50) (log10 of the value in nM)
All values: base-10 log of EC50 in nM.

Measured log10(EC50), NCCCC(N)(C(=O)O)C(F)F (centres undefined) [EFLORNITHINE] : 4.21

Data point: Cn1c([N+](=O)[O-])cnc1COc1ccc(S(C)(=O)=O)cc1 [FEXINIDAZOLE SULFONE] ; log10(EC50) = 2.79

Documented log10(EC50) of O=[N+]([O-])c1cn2c(n1)OC[C@@H](OCc1ccc(OC(F)(F)F)cc1)C2 [PRETOMANID] : 4.58

The recorded log10(EC50) for N=C(N)c1ccc(OCCCCCOc2ccc(C(=N)N)cc2)cc1 [PENTAMIDINE] is -0.02

For this compound ( O=C(Cn1ccnc1[N+](=O)[O-])NCc1ccccc1 [BENZNIDAZOLE] ), measured log10(EC50) is 4.48

For NC(=O)N/N=C/c1ccc([N+](=O)[O-])o1 [NITROFURAZONE] the compound record lists log10(EC50) as 2.49

Memo: Cn1c([N+](=O)[O-])cnc1COc1ccc([S+](C)[O-])cc1 (centres undefined) [FEXINIDAZOLE SULFOXIDE] , reported log10(EC50): 3.15

For NC(=O)c1cc(N2CC2)c([N+](=O)[O-])cc1[N+](=O)[O-] [TRETAZICAR] the compound record lists log10(EC50) as 2.73
